Reference source for all entries: patent US9908893B2

# STUDY SYSTEM: UniProt P33527
# Sequence (P33527 whole entry): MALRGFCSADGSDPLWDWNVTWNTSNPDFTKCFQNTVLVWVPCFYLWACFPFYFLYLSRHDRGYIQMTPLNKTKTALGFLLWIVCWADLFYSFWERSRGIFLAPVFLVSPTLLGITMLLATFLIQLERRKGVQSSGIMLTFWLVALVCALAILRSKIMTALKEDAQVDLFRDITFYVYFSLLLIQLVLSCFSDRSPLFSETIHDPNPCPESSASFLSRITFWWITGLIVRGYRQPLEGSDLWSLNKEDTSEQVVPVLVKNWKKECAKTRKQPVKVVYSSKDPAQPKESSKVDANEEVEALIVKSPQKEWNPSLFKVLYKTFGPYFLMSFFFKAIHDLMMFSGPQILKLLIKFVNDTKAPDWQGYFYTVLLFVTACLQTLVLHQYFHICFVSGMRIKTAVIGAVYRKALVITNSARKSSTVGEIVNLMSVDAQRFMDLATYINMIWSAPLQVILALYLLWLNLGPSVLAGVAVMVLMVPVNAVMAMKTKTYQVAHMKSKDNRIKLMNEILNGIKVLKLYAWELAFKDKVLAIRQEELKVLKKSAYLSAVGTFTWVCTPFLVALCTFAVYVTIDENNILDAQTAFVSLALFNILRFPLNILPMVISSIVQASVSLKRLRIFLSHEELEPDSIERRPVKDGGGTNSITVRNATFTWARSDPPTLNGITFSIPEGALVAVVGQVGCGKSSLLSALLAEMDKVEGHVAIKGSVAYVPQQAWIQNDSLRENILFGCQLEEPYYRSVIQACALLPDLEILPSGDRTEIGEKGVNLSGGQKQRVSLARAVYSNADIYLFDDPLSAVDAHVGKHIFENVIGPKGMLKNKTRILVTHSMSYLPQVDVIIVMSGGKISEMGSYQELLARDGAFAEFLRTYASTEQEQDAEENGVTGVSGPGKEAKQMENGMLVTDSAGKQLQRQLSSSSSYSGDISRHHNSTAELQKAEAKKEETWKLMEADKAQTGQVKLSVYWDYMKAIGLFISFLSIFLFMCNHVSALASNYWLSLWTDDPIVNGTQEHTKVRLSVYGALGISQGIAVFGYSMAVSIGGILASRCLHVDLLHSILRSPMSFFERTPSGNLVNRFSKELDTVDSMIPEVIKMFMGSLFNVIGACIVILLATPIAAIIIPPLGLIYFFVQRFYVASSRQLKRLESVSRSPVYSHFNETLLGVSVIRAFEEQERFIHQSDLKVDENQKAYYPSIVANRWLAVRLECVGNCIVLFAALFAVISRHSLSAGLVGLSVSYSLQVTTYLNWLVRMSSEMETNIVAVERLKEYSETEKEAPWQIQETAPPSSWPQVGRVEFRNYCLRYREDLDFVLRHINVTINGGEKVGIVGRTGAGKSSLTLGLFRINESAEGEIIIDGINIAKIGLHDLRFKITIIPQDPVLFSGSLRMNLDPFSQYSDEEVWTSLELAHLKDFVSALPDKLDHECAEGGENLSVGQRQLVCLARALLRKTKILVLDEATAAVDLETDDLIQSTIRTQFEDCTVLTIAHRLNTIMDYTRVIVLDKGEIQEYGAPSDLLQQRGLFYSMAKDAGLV
# ASSAY TEXT: cell-based

{"columns": ["ENTRY SMILES", "EC50, µM"],
 "data": [
  ["CCOC(=O)c1c(C)nc2sc(C(=O)c3ccc(OC)cc3)c(N)c2c1-c1ccc2c(c1)OCO2", 24.8]
]}

====

Reported values of pEC50 for individual entries
# STUDY SYSTEM: BCRP1 (Homo sapiens)
# Sequence (Q9UNQ0 whole entry): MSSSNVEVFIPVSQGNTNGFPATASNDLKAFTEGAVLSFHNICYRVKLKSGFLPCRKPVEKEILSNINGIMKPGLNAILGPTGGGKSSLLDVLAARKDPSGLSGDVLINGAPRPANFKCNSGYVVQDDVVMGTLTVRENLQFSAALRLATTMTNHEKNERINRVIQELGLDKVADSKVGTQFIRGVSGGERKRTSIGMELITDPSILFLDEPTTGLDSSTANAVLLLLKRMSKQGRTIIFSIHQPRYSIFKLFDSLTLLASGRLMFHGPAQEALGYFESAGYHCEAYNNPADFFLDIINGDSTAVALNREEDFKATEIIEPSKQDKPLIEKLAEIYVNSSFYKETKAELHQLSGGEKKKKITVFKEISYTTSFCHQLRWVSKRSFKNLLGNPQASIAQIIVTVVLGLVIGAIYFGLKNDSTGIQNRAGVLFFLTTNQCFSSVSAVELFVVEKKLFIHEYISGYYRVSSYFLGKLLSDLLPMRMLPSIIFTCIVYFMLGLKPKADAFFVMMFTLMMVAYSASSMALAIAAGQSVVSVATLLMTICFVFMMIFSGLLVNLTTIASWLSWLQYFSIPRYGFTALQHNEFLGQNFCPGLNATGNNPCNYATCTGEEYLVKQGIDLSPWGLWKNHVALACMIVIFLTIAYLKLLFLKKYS
# ASSAY TEXT: cell-based
pEC50: −log10 of the molar value.

{"columns": ["ENTRY SMILES", "pEC50"],
 "data": [
  ["COc1cc(-c2cc(-c3cc(OC)c(OC)c(OC)c3)c3c(N)c(C(=O)c4ccc(Cl)cc4)sc3n2)cc(OC)c1OC", 4.84],
  ["COC(=O)c1c(C)nc2sc(C(=O)c3ccc4ccccc4c3)c(N)c2c1-c1cc(OC)c(OC)c(OC)c1", 6.10],
  ["CCOC(=O)c1c(C)nc2sc(C(=O)c3ccc(OC)cc3)c(N)c2c1-c1ccc2c(c1)OCO2", 5.64]
]}

====

# STUDY SYSTEM: P-glycoprotein (P-gp) (Homo sapiens)
# Sequence (P08183 whole entry): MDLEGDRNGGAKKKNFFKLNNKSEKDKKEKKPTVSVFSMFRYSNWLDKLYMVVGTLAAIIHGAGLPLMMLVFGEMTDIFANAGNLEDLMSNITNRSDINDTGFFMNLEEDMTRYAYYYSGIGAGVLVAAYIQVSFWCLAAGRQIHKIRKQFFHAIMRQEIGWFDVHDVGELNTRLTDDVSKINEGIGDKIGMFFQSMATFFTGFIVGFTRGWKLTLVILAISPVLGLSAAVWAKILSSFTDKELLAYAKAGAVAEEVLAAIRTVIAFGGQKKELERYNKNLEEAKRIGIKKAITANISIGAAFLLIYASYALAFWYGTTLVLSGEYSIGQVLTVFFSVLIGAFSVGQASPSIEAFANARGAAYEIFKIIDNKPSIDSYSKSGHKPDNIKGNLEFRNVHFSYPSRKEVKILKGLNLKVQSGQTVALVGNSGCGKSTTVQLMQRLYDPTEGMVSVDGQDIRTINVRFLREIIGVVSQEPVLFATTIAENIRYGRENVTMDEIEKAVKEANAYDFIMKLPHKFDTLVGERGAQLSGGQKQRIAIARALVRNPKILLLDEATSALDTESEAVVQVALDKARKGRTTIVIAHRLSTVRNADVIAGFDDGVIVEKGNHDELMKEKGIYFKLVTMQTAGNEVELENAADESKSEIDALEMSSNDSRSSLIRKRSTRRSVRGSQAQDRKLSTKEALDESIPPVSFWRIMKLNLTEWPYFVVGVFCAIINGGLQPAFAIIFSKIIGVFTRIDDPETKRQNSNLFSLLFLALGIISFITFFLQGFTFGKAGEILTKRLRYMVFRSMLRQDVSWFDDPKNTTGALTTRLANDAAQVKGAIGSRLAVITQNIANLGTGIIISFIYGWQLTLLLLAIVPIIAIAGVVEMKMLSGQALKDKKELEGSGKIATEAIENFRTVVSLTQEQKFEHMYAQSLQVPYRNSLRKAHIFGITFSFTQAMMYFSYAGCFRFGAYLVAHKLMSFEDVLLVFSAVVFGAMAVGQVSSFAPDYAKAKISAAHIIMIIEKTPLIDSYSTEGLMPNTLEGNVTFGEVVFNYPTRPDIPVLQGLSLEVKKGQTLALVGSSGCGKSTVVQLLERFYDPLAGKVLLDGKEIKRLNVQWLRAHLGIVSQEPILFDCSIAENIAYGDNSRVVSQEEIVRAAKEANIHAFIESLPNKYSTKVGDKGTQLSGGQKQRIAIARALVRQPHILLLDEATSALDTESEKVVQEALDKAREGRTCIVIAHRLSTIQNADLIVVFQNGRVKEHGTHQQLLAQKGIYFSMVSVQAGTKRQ
# ASSAY TEXT: Measurement of P-glycoprotein activity: rhodamine 123 accumulation in MES-SA and MES-SA/Dx5 cells
# Description: Thieno[2,3-b]pyridines of the formula (I) were tested to reveal MDR-blocking activity. About 50,000 cells/well of the human uterine sarcoma cell line MESSA and MES-SA/Dx5 were seeded into the 96-well plates and incubated for 24 h. The MDR modulators were incubated with the cells for 15 min. […] The EC50 values were calculated using the program Graph Pad Prism® 4.0.
pEC50: −log10 of the molar value.

{"columns": ["ENTRY SMILES", "pEC50"],
 "data": [
  ["COc1cc(-c2cc(-c3cc(OC)c(OC)c(OC)c3)c3c(N)c(C(=O)c4ccc(Cl)cc4)sc3n2)cc(OC)c1OC", 4.50],
  ["CCOC(=O)c1c(C)nc2sc(C(=O)c3ccc(OC)cc3)c(N)c2c1-c1ccc2c(c1)OCO2", 4.69],
  ["COc1ccc(C(=O)c2sc3nc(-c4cc(OC)c(OC)c(OC)c4)cc(-c4cc(OC)c(OC)c(OC)c4)c3c2N)cc1", 4.49],
  ["COC(=O)c1c(C)nc2sc(C(=O)c3ccc4ccccc4c3)c(N)c2c1-c1cc(OC)c(OC)c(OC)c1", 4.98]
]}

====

Reported values of LD50 at 24 h for individual entries
# ASSAY TEXT: Basal toxicity test, neutral red, alternative LD50 calculated from IC50
# CONDITION SUMMARY: mouse, LD50, alternative LD50 calculated by formula from IC50 in NIH 3T3 cells

{"columns": ["COMPOUND", "READOUT QUALIFIER", "LD50 at 24 h (mg/kg)"],
 "data": [
  ["COc1cc(-c2cc(-c3cc(OC)c(OC)c(OC)c3)c3c(N)c(C(=O)c4ccc(Cl)cc4)sc3n2)cc(OC)c1OC", ">", 2000],
  ["COC(=O)c1c(C)nc2sc(C(=O)c3ccc(OC)cc3OC)c(N)c2c1-c1ccc(OC)c(OC)c1", "=", 1040],
  ["COC(=O)c1c(C)nc2sc(C(=O)c3ccc(F)cc3)c(N)c2c1-c1cc(OC)c(OC)c(OC)c1", ">", 2000],
  ["CCOC(=O)c1c(C)nc2sc(C(=O)c3ccc(OC)cc3)c(N)c2c1-c1ccc(OC)c(OC)c1", "=", 2040],
  ["CCOC(=O)c1c(C)nc2sc(C(=O)c3ccc(OC)cc3OC)c(N)c2c1-c1ccc(OC)c(OC)c1", "=", 2360],
  ["COC(=O)c1c(C)nc2sc(C(=O)c3ccc(OC)cc3OC)c(N)c2c1-c1cc(OC)c(OC)c(OC)c1", ">", 2000],
  ["COc1ccc(C(=O)c2sc3nc(C)cc(C)c3c2N)c(OC)c1", "=", 959],
  ["COC(=O)c1c(C)nc2sc(C(=O)c3ccc(OC)cc3)c(N)c2c1-c1cc(OC)c(OC)c(OC)c1", ">", 2000],
  ["COCCOC(=O)c1c(C)nc2sc(C(=O)c3ccc(OC)cc3OC)c(N)c2c1-c1cc(OC)c(OC)c(OC)c1", ">", 2000],
  ["CN(C)C(=O)CCSC(SCCC(=O)O)c1cccc(/C=C/c2ccc3ccc(Cl)cc3n2)c1 (stereo not drawn) [MK-571, reference compound]", "=", 752],
  ["CCOC(=O)c1c(C)nc2sc(C(=O)c3ccc(OC)cc3)c(N)c2c1-c1ccc(OCC)cc1", ">", 2000],
  ["COc1ccc(C(=O)c2sc3nc(C)c(C(C)=O)c(-c4ccc(OC)c(OC)c4)c3c2N)c(OC)c1", ">", 2000],
  ["COc1ccc(C(=O)c2sc3nc(C)c(C(C)=O)c(-c4ccc(OC)c(OC)c4)c3c2N)cc1", ">", 2000],
  ["COCCOC(=O)c1c(C)nc2sc(C(=O)c3ccc(OC)cc3)c(N)c2c1-c1ccc(OC)cc1", ">", 2000],
  ["COc1ccc(C(=O)c2sc3nc(C)c(C(C)=O)c(-c4cc(OC)c(OC)c(OC)c4)c3c2N)c(OC)c1", "=", 1070]
]}

====

# ASSAY TEXT: Basal toxicity test, neutral red, alternative LD50 calculated from IC50
# CONDITION SUMMARY: mouse, LD50, alternative LD50 calculated by formula from IC50 in NIH 3T3 cells
# Method: A low therapeutic index of chemotherapy agents is due to affecting not only cancer formation but also normal cells. 9,000 NIH 3T3 cells/well were placed into 96-well plates for 24 h and then exposed to the test compound over a range of eight concentration (1-1000 μg/ml) for 24 h. Upon that, the cells were incubated with the neutral red dye for 4 h and then OD was determined at 540 nm. […] The IC50 values were calculated using the program Graph Pad Prism® 4.0
Reported values of LD50 at 24 h for individual entries

{"columns": ["COMPOUND", "LD50 at 24 h"],
 "data": [
  ["CCCCOC(=O)c1c(C)nc2sc(C(=O)c3ccc(OC)cc3)c(N)c2c1-c1cc(OC)c(OC)c(OC)c1 [Compound 30]", "> 2000 mg/kg"],
  ["COc1ccc(C(=O)c2sc3nc(C)c(C(C)=O)c(-c4cc(OC)c(OC)c(OC)c4)c3c2N)cc1 [Compound 3]", "> 2000 mg/kg"],
  ["CCOC(=O)c1c(C)nc2sc(C(=O)c3ccc(OC)cc3)c(N)c2c1-c1ccc(O)c(OC)c1 [Compound 16]", "> 2000 mg/kg"],
  ["CCOC(=O)c1c(C)nc2sc(C(=O)c3ccc(OC)cc3)c(N)c2c1-c1ccc2c(c1)OCO2 [Compound 42]", "2010 mg/kg"],
  ["CCOC(=O)c1c(C)nc2sc(C(=O)c3ccc(Cl)cc3)c(N)c2c1-c1cc(OC)c(OC)c(OC)c1 [Compound 23]", "2700 mg/kg"],
  ["CCOC(=O)c1c(C)nc2sc(C(=O)c3ccc(OC)cc3)c(N)c2c1-c1ccc(N(C)C)cc1 [Compound 29]", "> 2000 mg/kg"],
  ["CCOC(=O)c1c(C)nc2sc(C(=O)c3ccc(OC)cc3)c(N)c2c1-c1ccc(O)cc1 [Compound 14]", "231 mg/kg"],
  ["CCOC(=O)c1c(C)nc2sc(C(=O)c3ccc(OC)cc3)c(N)c2c1-c1cc(OC)c(OC)c(OC)c1 [Compound 24]", "> 2000 mg/kg"],
  ["CCOC(=O)c1c(C)nc2sc(C(=O)c3ccc(OC)cc3)c(N)c2c1-c1ccc(OC)cc1 [Compound 17]", "> 2000 mg/kg"],
  ["CCOC(=O)c1c(C)nc2sc(C(=O)c3ccc(OC)cc3)c(N)c2c1-c1ccc(Cl)cc1 [Compound 28]", "> 2000 mg/kg"],
  ["COCCOC(=O)c1c(C)nc2sc(C(=O)c3cccc(OC)c3)c(N)c2c1-c1cc(OC)c(OC)c(OC)c1 [Compound 33]", "> 2000 mg/kg"],
  ["COc1ccc(C(=O)c2sc3nc(-c4cc(OC)c(OC)c(OC)c4)cc(-c4cc(OC)c(OC)c(OC)c4)c3c2N)cc1 [Compound 48]", "3080 mg/kg"],
  ["COC(=O)c1c(C)nc2sc(C(=O)c3ccc4ccccc4c3)c(N)c2c1-c1cc(OC)c(OC)c(OC)c1 [Compound 41]", "> 2000 mg/kg"],
  ["COC(=O)c1c(C)nc2sc(C(=O)c3ccc(OC)cc3)c(N)c2c1-c1ccc(OC)c(OC)c1 [Compound 6]", "> 2000 mg/kg"],
  ["CCOC(=O)c1c(C)nc2sc(C(=O)c3ccc(F)cc3)c(N)c2c1-c1ccc(OC)c(OC)c1 [Compound 18]", "> 2000 mg/kg"],
  ["COCCOC(=O)c1c(C)nc2sc(C(=O)c3ccccc3)c(N)c2c1-c1cc(OC)c(OC)c(OC)c1 [Compound 32]", "> 2000 mg/kg"],
  ["COC(=O)c1c(C)nc2sc(C(=O)c3ccc(OC)cc3)c(N)c2c1-c1ccc(OC)cc1 [Compound 5]", "> 2000 mg/kg"]
]}
